Test: chemical genetic growth profiling, strain panel (AID 1159580);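 further: tested at 20 µM; growth read once vehicle control cultures reached saturation at 30 °C; lower values mean less growth of the strain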
Details: S. cerevisiae deletion strains, growth OD, locus YMR205C, strain PFK2
The whole screen tested about 5,500 compounds, of which about 2,000 (36%) were called active. Another 18% or so got no clear call; they are omitted. No stated cut-off is given here; in the data, active means normalized growth mostly below about 0.91 (no sharp cut-off); inconclusive means no clear call, values can overlap the other calls; inactive means mostly above about 0.92. Some of the results follow.
The reply should be one of these categories: active, inactive

Please review the entries below; each comes with its answer.
[[record]]
compound = "NCCCCC(=O)O"
class_label = "inactive"

[[record]]
compound = "Clc1ccc(C(c2ccccc2Cl)C(Cl)Cl)cc1 (stereo not drawn)"
class_label = "inactive"

[[record]]
compound = "Cc1cccc(C)c1NC(=O)C1CCCCN1C (stereo not drawn)"
class_label = "inactive"

[[record]]
compound = "Cc1cc(CC(=O)O)n(C)c1C(=O)c1ccc(Cl)cc1"
class_label = "inactive"

[[record]]
compound = "NCCCNCCSP(=O)(O)O"
class_label = "inactive"


Field: outcome | Entry: COc1cc(C)c2c(=O)cc(-c3ccccc3)oc2c1
active

Please indicate how the test categorized CC(=O)O[C@H]1C[C@@]2(C)[C@@H](C[C@@H](O)C3[C@]2(C)CC[C@H]2[C@H](C)[C@H](O)CC[C@]32C)/C1=C(/CCC=C(C)C)C(=O)O (stereo partly drawn) .
inactive
